target: Cannabinoid receptor 2 (Rattus norvegicus); assay: Displacement of [3H]CP-55,940 from Sprague-Dawley rat spleen CB2 receptor by scintillation counting analysis
Sequence (Q9QZN9 whole entry): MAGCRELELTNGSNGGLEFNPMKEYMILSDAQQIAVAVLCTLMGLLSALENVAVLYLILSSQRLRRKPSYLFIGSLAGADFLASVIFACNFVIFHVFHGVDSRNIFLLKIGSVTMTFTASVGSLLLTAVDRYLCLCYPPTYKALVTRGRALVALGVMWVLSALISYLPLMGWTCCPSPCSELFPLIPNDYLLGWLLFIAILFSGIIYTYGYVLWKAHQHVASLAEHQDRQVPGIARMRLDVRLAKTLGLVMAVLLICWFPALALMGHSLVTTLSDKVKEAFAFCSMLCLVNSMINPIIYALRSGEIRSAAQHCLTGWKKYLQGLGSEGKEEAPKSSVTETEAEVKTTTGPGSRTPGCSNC
Answer each item with its documented pKi.
Answers are plain numbers, as −log10 of the molar value.

Record excerpt, results attached:
CCCCCn1cc(C(=O)NC23CC4CC(CC(C4)C2)C3)c(=O)c2c(C)c(C)sc21    8.37
CCCCCn1cc(C(=O)NC2CCCCC2)c(=O)c2c(C(C)(C)C)nn(C)c21    5.39

Provide measured pKi value, entry: `CCCCCn1cc(C(=O)NC23CC4CC(CC(C4)C2)C3)c(=O)c2cnn(C)c21`
7.88

---

Assign Ki to each entry below.
molecular target: UniProt:P34972; assay: Displacement of [3H]CP-55,940 from human recombinant CB2 receptor expressed in CHO cell membranes after 60 mins by scintillation counting analysis
Sequence (P34972 whole entry): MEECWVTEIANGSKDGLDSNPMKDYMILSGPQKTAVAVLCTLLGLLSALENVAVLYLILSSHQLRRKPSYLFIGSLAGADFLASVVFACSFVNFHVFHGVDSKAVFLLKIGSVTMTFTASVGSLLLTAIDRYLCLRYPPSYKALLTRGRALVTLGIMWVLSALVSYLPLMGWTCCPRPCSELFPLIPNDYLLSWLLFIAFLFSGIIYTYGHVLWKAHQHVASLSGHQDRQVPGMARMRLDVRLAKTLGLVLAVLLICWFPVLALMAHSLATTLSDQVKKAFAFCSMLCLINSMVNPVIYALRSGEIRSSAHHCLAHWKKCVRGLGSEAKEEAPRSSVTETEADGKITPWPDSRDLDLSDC
Numbers only, in nM.

CCCCCn1cc(C(=O)N[C@H]2CC[C@H](C)CC2)c(=O)c2c(C)nn(C)c21    11.4
CCCCCn1cc(C(=O)NCC2CCCCC2)c(=O)c2c(C)nn(C)c21    372
CCCCCn1cc(C(=O)NC2CCCCCC2)c(=O)c2cnn(C)c21    103

Here is the next item to consider.
Provide Ki value for the following molecule: `CCCCCn1cc(C(=O)NC2CCCCCC2)c(=O)c2c(C)noc21`
18.5
